# Test system: DMS-114
# procedure text: NCI tumour cell line growth inhibition, 48 h
Calls of active or inactive are those of the source. Rule as the data show it: active = GI50 up to about 1.1 µM and inactive = higher.
reported property: GI50

molecule=O=C1/C=C(/c2ccc(O)cc2)[C@@H](O)Cc2ccc(O)cc2O1 target_or_test_system=DMS-114 reported_property=GI50 readout_value="51.3 µM (inactive)"
molecule=N#C/N=C(/NCc1ccccc1)N(Cc1ccccc1)Cc1ccccc1 target_or_test_system=DMS-114 reported_property=GI50 readout_value="> 10 µM (inactive)"
molecule=O=C1C(c2ccc(C3=[N+]([O-])c4cc([N+](=O)[O-])ccc4C3=O)cc2)=[N+]([O-])c2cc([N+](=O)[O-])ccc21 target_or_test_system=DMS-114 reported_property=GI50 readout_value="> 10 µM (inactive)"
molecule=CCCOc1ccc(/C=C\c2cc(OC)c(OC)c(OC)c2)cc1 target_or_test_system=DMS-114 reported_property=GI50 readout_value="34.4 µM (inactive)"
molecule=CC(=O)OCC1=C(COC(C)=O)C(=O)c2c(O)ccc(O)c2C1=O target_or_test_system=DMS-114 reported_property=GI50 readout_value="11.2 µM (inactive)"
molecule="CC(=O)OCC1OC(n2cc(F)c(=O)[nH]c2=O)C(N)C(OC(C)=O)C1OC(C)=O (stereo unspecified)" target_or_test_system=DMS-114 reported_property=GI50 readout_value="> 100 µM (inactive)"
molecule=CCCN(CCC)c1c([N+](=O)[O-])cc(C(=O)N(C)C)cc1[N+](=O)[O-] target_or_test_system=DMS-114 reported_property=GI50 readout_value="33.4 µM (inactive)"
molecule="CCCN(CCCC(NC(C)=O)C(=O)NCc1ccccc1)C(=O)N(CCCl)N=O (stereo unspecified)" target_or_test_system=DMS-114 reported_property=GI50 readout_value="14.4 µM (inactive)"
molecule="COc1ccc(CC/N=C2\\CCC(C(=O)NCCc3ccc(OC)c(OC)c3)N2)cc1OC (stereo unspecified)" target_or_test_system=DMS-114 reported_property=GI50 readout_value="> 100 µM (inactive)"
molecule=O=c1[nH]c2ccccc2cc1C(Cl)=C(Cl)Cl target_or_test_system=DMS-114 reported_property=GI50 readout_value="> 100 µM (inactive)"
molecule="CC(=O)OC1CCC2C(=CCC3C2(C)C(=O)CC2(C)C(C4(C)OC(C(C)C)=CC4=O)C(O)CC32C)C1(C)C (stereo unspecified)" target_or_test_system=DMS-114 reported_property=GI50 readout_value="25.8 µM (inactive)"
